measure: pIC50
pIC50 here: minus log base 10 of the concentration, concentration in moles per litre.

Under UniProtKB P25024: pIC50 value of `N#Cc1c(Cl)ccc(NC(=O)Nc2ccccc2Br)c1O` ? 4.95

Observed pIC50 on UniProtKB P25024 for `N#Cc1ccc(NC(=O)Nc2ccccc2Br)c(O)c1Cl` , please. 5.38

Field: pIC50 (UniProtKB P25024). Entry: `O=C(Nc1ccccc1)Nc1ccc([N+](=O)[O-])cc1O` 4.74

Query for UniProtKB P25024: what pIC50 does the record show for `N#Cc1ccc(NC(=O)Nc2ccccc2Br)c(O)c1Br` ? 5.59

Lookup: pIC50 / UniProtKB P25024 / `N#Cc1ccc(NC(=O)Nc2ccccc2Br)c(O)c1` 4.82

Query for UniProtKB P25024: what pIC50 does the record show for `O=C(Nc1ccccc1)Nc1cccc([N+](=O)[O-])c1O` ? 4.48

* * *

Biological target: C-X-C chemokine receptor type 2 (Homo sapiens)
Sequence (P25025 whole entry): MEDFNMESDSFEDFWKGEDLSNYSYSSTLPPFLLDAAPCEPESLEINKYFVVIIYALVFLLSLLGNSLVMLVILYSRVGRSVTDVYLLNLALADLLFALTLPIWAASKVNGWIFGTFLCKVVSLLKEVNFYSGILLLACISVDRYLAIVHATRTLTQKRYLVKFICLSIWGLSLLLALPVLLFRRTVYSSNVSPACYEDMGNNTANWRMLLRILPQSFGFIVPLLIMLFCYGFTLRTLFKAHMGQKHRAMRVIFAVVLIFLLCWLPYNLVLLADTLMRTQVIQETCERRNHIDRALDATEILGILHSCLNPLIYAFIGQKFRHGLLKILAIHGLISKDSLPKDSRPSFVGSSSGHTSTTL
measure: IC50 (nM)
Field: numeric (nM). Do not append units.

Would you kindly share the measured IC50 for `O=C(Nc1ccccc1)Nc1cc([N+](=O)[O-])ccc1O` ? 10900

Return reported IC50; argument: `N#Cc1ccc(NC(=O)Nc2ccccc2Br)c(O)c1Cl` 22

Would you kindly share the measured IC50 for `N#Cc1ccc(NC(=O)Nc2ccccc2)c(O)c1` ? 200

Give the measured IC50 of `N#Cc1ccc(NC(=O)Nc2ccccc2Br)c(O)c1Br` . 6
